Test system: KM12 colon
Assay: NCI tumour cell line growth inhibition, 48 h
I'd be grateful if you could share measured TGI for these entries.

Tell me the measured TGI of CC(CCN)(CCN)[N+](=O)[O-] , please. > 100 µM

Further, for CSc1ccc(C(=C=C=C(c2ccc(SC)s2)c2ccc(SC)s2)c2ccc(SC)s2)s1 ? > 10 µM

Continue with C=C1c2ccccc2C(=O)c2c1c1c(C(=O)OC)c(O)ccc1n2Cc1ccccc1 1.7 µM

Follow-up entry: COc1cc(O)c2c(=O)cc(-c3ccc(O)cc3O)oc2c1CC=C(C)C 21.5 µM

Same for COc1ccc(-c2c(C#N)c(N)n(C3OCC(OC(C)=O)C(OC(C)=O)C3OC(C)=O)c(=S)c2C#N)cc1 (stereo not drawn) > 100 µM

Do the same for O=C1C(Cl)C2(CC(/C=C/c3ccccc3Cl)=NN2c2cccc(S(=O)(=O)O)c2)N1c1nc2ccccc2s1 (stereo not drawn) please > 100 µM

Repeat for the following compound: COC1=C(OC)C(=O)C(Cc2c(Cl)nc3sc(C)cn23)=C(C)C1=O 27.8 µM

Then what about the compound CCCCOC(=O)C1C2CCC(O2)C1C(=O)OCCCC (stereo not drawn) ? > 100 µM

How about this compound: COc1cc(C(=O)O[C@H](C(=O)NCCCCCNC(=O)[C@@H](OC(=O)c2cc(OC)cc3c(C)cccc23)[C@]2(C)CO2)[C@]2(C)CO2)c2cccc(C)c2c1 1.41 µM

Quick one: CSc1nc(C#N)c(/N=C\N(C)C)n1C > 100 µM

// query: COC(=O)C1(C(=O)OC)Cc2ccc(OC)cc2C2=C1C(=O)c1ccccc1C2=O 23.5 µM

Cool, now COc1cc(/C=C/C(=O)c2cccc(Nc3nc(Nc4ccccc4)nc(Nc4ccccc4)n3)c2)cc(OC)c1OC > 87.9 µM

Follow-up entry: O=C1Nc2ccccc2/C1=C/C(=O)c1coc2c1C(=O)c1ccccc1C2=O > 100 µM

What do you have for COc1ccc(-c2nc(-c3nc4ccc(OC)cc4[nH]3)c3ccccn23)cc1 ? 15.8 µM

Further, for Cc1cc(=O)[nH]c(-n2[nH]c(C)c(CCO)c2=O)n1 ? > 100 µM

Next entry: CCN(CC)CCCCNc1c2ccccc2[n+](C)c2c1[nH]c1ccccc12 4.79 µM

Further, for COc1ccc(Nc2nnc(-c3nsc4ccccc34)s2)cc1 ? > 100 µM

Try this compound next: O=C(O)CNC(=O)c1ccc(-c2ccccc2)cc1 > 100 µM
